Cited source for all entries: PubChem BioAssay (NCATS)

Test: Drug repurposing screens with cells derived from glioblastoma tumor samples (AID 1345199)
Conditions: GBM patient neurospheres viability, ATP luminescence, 48 h; at 20 µM (top of the series); tumour line C
Results filed as inconclusive are left out.
Binarize activity, negative = cell killing at -10%; below is True, at or above is False.

compound="C[N+]1([O-])[C@@H]2CC[C@H]1CC(OC(=O)C(CO)c1ccccc1)C2 (stereo partly specified)" group=True
compound=CC1(C)S[C@@H]2[C@H](N)C(=O)N2[C@H]1C(=O)O group=False
compound=O=S(=O)(O)c1cc(O)ccc1O group=False
compound=CC(=O)O[C@H]1CC[C@@]2(C)C(=CC[C@@H]3[C@@H]2CC[C@]2(C)C(=O)CC[C@@H]32)C1 group=True

Next, consider the following compound.
Consider the compound C[C@]12CCC(=O)C=C1C=C[C@@H]1[C@@H]2CC[C@@]2(C)[C@H]1CC[C@@]2(O)CCC(=O)O . Is its activity, negative = cell killing strictly less than -10%?
False
